tgt: Beta-2 adrenergic receptor (Homo sapiens)
assayProtocol: Adrenergic beta2 receptor (ADRB2) small molecule antagonists, cell-based qHTS assay (AID 1963592); further: nearly all actives have a fitted effect of over 50% in size
conditionSummary: CHO-ADRB2 cells, isoproterenol-stimulated cAMP HTRF ratio, 0.5 h; series mostly up to 92.4 µM
Records with an inconclusive call do not appear. Activity calls are given as the source filed them. The call rests on the fitted dose curve.
Parameter call: string, one of active, inactive

Example cases with answers are listed next.
compound	tgt	assignedLabel
C=C1c2cccc(O)c2C(O)=C2C(=O)[C@]3(O)C(O)=C(C(N)=O)C(=O)[C@@H](N(C)C)[C@@H]3[C@@H](O)[C@H]12	Beta-2 adrenergic receptor (Homo sapiens)	inactive
CN1CCN2c3ccccc3Cc3ccccc3C2C1 (stereo unspecified)	Beta-2 adrenergic receptor (Homo sapiens)	inactive

[Q] What outcome does the record of this test show for "CN1CCN(c2ccccc2/C=C2\SCCN(c3ccc(Cl)c(Cl)c3)C2=O)CC1" ?
[A] active

[Q] What outcome does the record of this test show for Cc1cc(C(C#N)c2ccc(Cl)cc2)c(Cl)cc1NC(=O)c1cc(I)cc(I)c1O (stereo unspecified) ?
[A] inactive

[Q] What outcome does the record of this test show for "NCCCOCCOCCOCCCN" ?
[A] inactive

[Q] What outcome does the record of this test show for "CC(C)c1ccc(O)c(C(C)C)c1" ?
[A] inactive

----------
assayProtocol: G protein-coupled receptor (GPCR) small molecule agonists, calcium flux assay: HEK293 wild type cell line counter screen (AID 1920065)
conditionSummary: HEK293 WT calcium flux, fluorescence, agonist mode; series mostly up to 57.6 µM
Calls of active or inactive are those of the source. The call rests on the fitted dose curve.
parameterMeasured: activation

Example results:
compoundString	activation
[Cl][Au]([Cl])[Cl]	inactive
CC[C@H]1OC(=O)[C@H](C)[C@@H](O[C@H]2C[C@@](C)(OC)[C@@H](O)[C@H](C)O2)[C@H](C)[C@@H](O[C@@H]2O[C@H](C)C[C@H](N(C)C)[C@H]2O)[C@](C)(O)C[C@@H](C)CN(C)[C@H](C)[C@@H](O)[C@]1(C)O	inactive
CN(C)CCN(C)CCO	inactive
Cc1ncc([C@@H](CCCCCCc2ccc3c(n2)NCCC3)CC(=O)O)cn1	inactive
CN(C)Cc1cc(C(C)(C)C)c(O)c(C(C)(C)C)c1	inactive
Oc1ccc(-c2ccccc2)c(Cl)c1	inactive

From here, focus on the item given below.
[Q] Retrieve activation measured for "COc1cccc(N(C)C(=S)Oc2ccc3c(c2)CCCC3)n1" and print it.
[A] inactive

----------
tgt: Muscarinic acetylcholine receptor M1 (Homo sapiens) (UniProt P11229)
Sequence (P11229 whole entry, looked up): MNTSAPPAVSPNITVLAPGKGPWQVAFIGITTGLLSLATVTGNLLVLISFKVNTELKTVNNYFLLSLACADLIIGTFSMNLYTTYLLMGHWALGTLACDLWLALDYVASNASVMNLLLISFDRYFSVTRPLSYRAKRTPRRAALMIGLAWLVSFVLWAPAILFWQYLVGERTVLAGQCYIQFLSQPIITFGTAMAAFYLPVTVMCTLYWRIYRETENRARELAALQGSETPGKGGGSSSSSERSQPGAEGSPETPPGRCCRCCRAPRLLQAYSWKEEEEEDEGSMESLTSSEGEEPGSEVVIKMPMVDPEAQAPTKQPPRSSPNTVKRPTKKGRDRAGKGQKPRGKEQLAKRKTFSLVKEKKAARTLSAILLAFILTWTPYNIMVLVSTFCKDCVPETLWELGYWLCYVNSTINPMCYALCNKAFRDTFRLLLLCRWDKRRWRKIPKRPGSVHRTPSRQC
assayProtocol: Cholinergic receptor muscarinic 1 (CHRM1) small molecule antagonists, cell-based qHTS assay (AID 1963588); further: nearly all actives have a fitted effect of over 40% in size
conditionSummary: CHRM1-CHO antagonist mode, calcium flux fluorescence; series mostly up to 61.5 µM
Records with an inconclusive call do not appear. Calls of active or inactive are those of the source. Calls follow the shape of the full dose curve.
Parameter call: string, one of active, inactive

[Q] What outcome does the record of this test show for "CNC(=O)C(c1ccccc1)c1ccccc1" ?
[A] inactive

[Q] What outcome does the record of this test show for "CN(C)c1ccc(O)c2c1C[C@H]1C[C@H]3[C@H](N(C)C)C(=O)C(C(N)=O)=C(O)[C@@]3(O)C(=O)C1=C2O" ?
[A] inactive

----------
tgt: 5-hydroxytryptamine receptor 2A (Homo sapiens) (UniProt P28223)
Sequence (P28223 whole entry, looked up): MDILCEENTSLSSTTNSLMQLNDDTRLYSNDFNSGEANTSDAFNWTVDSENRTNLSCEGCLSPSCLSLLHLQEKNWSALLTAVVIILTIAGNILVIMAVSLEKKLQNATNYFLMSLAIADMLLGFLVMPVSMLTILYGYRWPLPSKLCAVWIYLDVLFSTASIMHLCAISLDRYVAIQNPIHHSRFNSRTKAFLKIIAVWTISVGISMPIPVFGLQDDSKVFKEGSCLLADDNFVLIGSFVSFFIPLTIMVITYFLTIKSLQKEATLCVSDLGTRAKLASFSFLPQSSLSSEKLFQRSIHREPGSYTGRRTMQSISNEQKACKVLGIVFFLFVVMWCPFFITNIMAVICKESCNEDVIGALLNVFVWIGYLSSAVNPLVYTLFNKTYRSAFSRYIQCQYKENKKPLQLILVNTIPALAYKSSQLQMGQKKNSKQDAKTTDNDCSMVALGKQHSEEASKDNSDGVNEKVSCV
assayProtocol: 5-hydroxytryptamine receptor 2A (HTR2A) small molecule antagonists, cell-based qHTS assay (AID 1963586); further: nearly all actives have a fitted effect of over 45% in size
conditionSummary: HTR2A-CHO cells, DOI-induced calcium flux, fluorescence; series mostly up to 61.5 µM
Records with an inconclusive call do not appear. Calls of active or inactive are those of the source. The call rests on the fitted dose curve.
Parameter call: string, one of TRUE (active), FALSE (inactive)

compound	assignedLabel
O=c1[nH][nH]c2ccccc12	FALSE
CC(=O)Nc1ccc(S(=O)(=O)Cl)cc1	FALSE
CC(=O)CCC1=C(C)CCCC1(C)C	FALSE
CC(CCc1ccc2c(c1)OCO2)NN (stereo not given)	FALSE
CCC(C)N (stereo not given)	FALSE

[Q] What outcome does the record of this test show for "CCCNC(C)(C)COC(=O)c1ccccc1" ?
[A] FALSE

[Q] What outcome does the record of this test show for "Oc1cc2ccccc2c2ccccc12" ?
[A] FALSE

[Q] What outcome does the record of this test show for "Cc1nc(N)nc(N)c1-c1ccc(Cl)c(Cl)c1" ?
[A] FALSE

[Q] What outcome does the record of this test show for "CCN(CC)CCCN(c1ccccc1)C1Cc2ccccc2C1" ?
[A] TRUE

----------
assayProtocol: p53 small molecule agonists, cell-based qHTS assay with rat liver microsomes: qHTS cell viability counter screen (AID 1963580); further: nearly all actives have a fitted effect of over 45% in size
conditionSummary: p53RE-bla HCT-116 + rat microsomes, ATP viability, 16 h; series mostly up to 66 µM
Inconclusive results are not listed. Activity calls are given as the source filed them. The call rests on the fitted dose curve.
Parameter call: string, one of y for active, n for inactive

compoundString	assignedLabel
N#CSCSc1nc2ccccc2s1	n

[Q] What outcome does the record of this test show for "O=C(Nc1ccc(Cl)cc1)Nc1ccc(Cl)c(C(F)(F)F)c1" ?
[A] n

[Q] What outcome does the record of this test show for "CC1=Nc2ccc3ccccc3c2C1(C)C" ?
[A] n

----------
tgt: Beta-2 adrenergic receptor (Homo sapiens) (UniProt P07550)
Sequence (P07550 whole entry, looked up): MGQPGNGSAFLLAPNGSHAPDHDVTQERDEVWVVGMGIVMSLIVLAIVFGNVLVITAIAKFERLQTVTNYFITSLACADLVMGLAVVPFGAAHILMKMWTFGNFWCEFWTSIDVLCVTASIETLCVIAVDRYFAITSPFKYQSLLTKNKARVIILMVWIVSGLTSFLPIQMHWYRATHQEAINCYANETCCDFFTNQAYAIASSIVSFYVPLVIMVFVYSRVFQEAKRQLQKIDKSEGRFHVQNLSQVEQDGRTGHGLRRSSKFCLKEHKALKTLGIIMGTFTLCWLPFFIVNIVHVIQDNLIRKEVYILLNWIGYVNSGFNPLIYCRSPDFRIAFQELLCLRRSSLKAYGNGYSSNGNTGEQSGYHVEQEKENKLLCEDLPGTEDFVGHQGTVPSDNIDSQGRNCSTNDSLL
assayProtocol: Adrenergic beta2 receptor (ADRB2) small molecule antagonists, cell-based qHTS assay (AID 1963592); further: nearly all actives have a fitted effect of over 50% in size
conditionSummary: CHO-ADRB2 cells, isoproterenol-stimulated cAMP HTRF ratio, 0.5 h; series mostly up to 92.4 µM
From the text: U.S. Tox21 Program National Center for Advancing Translational Sciences [NCATS] Division of Preclinical Innovation [DPI] U.S. Environmental Protection Agency [EPA] National Institutes of Environmental Health Sciences [NIEHS] National Toxicology Program [NTP] U.S. Food and Drug Administration [FDA] […] The principle of cAMP-Gs dynamic assay is based on HTRF technology, which facilitates the fluorescence resonance energy transfer (FRET) between donor Europium cryptate and acceptor d2-labeled cAMP. […]
Records with an inconclusive call do not appear. The source made the active and inactive calls. The call rests on the fitted dose curve.
Parameter call: string, one of active, inactive

compound	assignedLabel
CC(=O)OCC(=O)[C@@]1(O)[C@H](OC(C)=O)C[C@H]2[C@@H]3CCC4=CC(=O)C=C[C@]4(C)[C@@]3(F)[C@@H](O)C[C@@]21C	inactive
CCOc1ccc(OCC)c(Cl)c1	inactive
CCN(CC)CCCN(c1ccccc1)C1Cc2ccccc2C1	active
CCN[C@H]1C[C@H](C)S(=O)(=O)c2sc(S(N)(=O)=O)cc21	inactive
COC(=O)CC(C)=O	inactive

[Q] What outcome does the record of this test show for "O=C(O)COC(=O)Cc1ccccc1Nc1c(Cl)cccc1Cl" ?
[A] inactive

[Q] What outcome does the record of this test show for "CCCCCCCCCCCCCCC" ?
[A] inactive

[Q] What outcome does the record of this test show for "CC(C)(c1ccccc1)c1ccccc1" ?
[A] inactive

[Q] What outcome does the record of this test show for COc1ccccc1OCC1CNC(=O)O1 (stereo not drawn) ?
[A] inactive

[Q] What outcome does the record of this test show for CCC(C)COC(C)=O (stereo not drawn) ?
[A] inactive

[Q] What outcome does the record of this test show for "C(=C\c1ccccc1)/CN1CCN(C(c2ccccc2)c2ccccc2)CC1" ?
[A] inactive

[Q] What outcome does the record of this test show for "O=C1CCC(=O)N1Cl" ?
[A] inactive

[Q] What outcome does the record of this test show for "CCCCCCCCCCCCOCCOS(=O)(=O)O" ?
[A] inactive

----------
tgt: KiSS-1 receptor (Homo sapiens)
assayProtocol: Human kisspeptin (KISS1R) small molecule agonists, calcium flux assay in KISS1R-HEK293 cells (AID 1920064); further: potency means the concentration at half of the fitted maximal effect
conditionSummary: KISS1R-HEK293, calcium flux fluorescence, agonist; series mostly up to 76.8 µM
Description: National Center for Advancing Translational Sciences [NCATS] Division of Preclinical Innovation [DPI] U.S. Environmental Protection Agency [EPA] National Institutes of Environmental Health Sciences [NIEHS] National Toxicology Program [NTP] U.S. Food and Drug Administration [FDA] […] KISS1R-HEK293 cells developed by Codex Corp contain human KISS1R gene, which was stably integrated into HEK 293 cells. The compound activation can be detected by fluorescence intensity via calcium flux assay. […]
Active and inactive are the calls of the source. Calls follow the shape of the dose curve; as a rule, active = well fitted activation curve with a large enough effect in the repeat runs; inconclusive = weak or mixed curves; inactive = flat fitted curve, though single readings scatter.
Overview of recorded Potency for various molecules

Example results:
molecule	Potency
C[n+]1c2cc(N)ccc2cc2ccc(N)cc21 (tested in a mixture with another compound)	21.3 µM (active)
CCN(CC)c1ccc2c(c1)Oc1cc(N(CC)CC)ccc1C21OC(=O)c2ccccc21	23.9 µM (active)
CC(=O)NCCCS(=O)(=O)O	11.9 µM (active)
O=C1OC2(c3ccccc31)c1ccc(O)c(Br)c1Oc1c2ccc(O)c1Br	7.76 µM (active)

From here, focus on the item given below.
[Q] Please tell me the measured Potency for "CCCC(=O)OC[C@@H](OC(=O)CCC)[C@@H](OC(=O)CCC)[C@H](Cn1c2nc(=O)[nH]c(=O)c-2nc2cc(C)c(C)cc21)OC(=O)CCC" ; system: KiSS-1 receptor (Homo sapiens).
[A] 16.9 µM (active)
